- test protocol: Phase 1 crossover pharmacokinetic study of Compound of Formula (II) formulations in healthy adult participants
- reported conditions: human, in vivo, oral, 4 mg, following single dose of 4 mg of compound of Formula (II), preliminary data
readout label: AUC(0-t) (ng·h/mL)

[A] O=C(Nc1cccnn1)N1CCC(=Cc2cccc(Oc3ccc(C(F)(F)F)cn3)c2)CC1 [Compound of Formula (II), reference compound]
[B] O=C1CCC(NC(=O)N2CCC(=Cc3cccc(Oc4ccc(C(F)(F)F)cn4)c3)CC2)=NN1 [Compound B]
[C] O=C(O)CCC(=O)NC(=O)N1CCC(=Cc2cccc(Oc3ccc(C(F)(F)F)cn3)c2)CC1 [Compound C]
Query: List from greatest to least AUC(0-t). Please respond with the labels ordered as the question requires.
Reply: A, C, B
(A: 138 ng·h/mL, C: 1.1 ng·h/mL, B: 0.6 ng·h/mL)

###

- test protocol: Phase 1 crossover pharmacokinetic study of Compound of Formula (II) formulations in healthy adult participants
- reported conditions: human, in vivo, oral, following multiple doses of 4 mg of compound of Formula (II), preliminary data
readout label: Tmax (h)

[A] O=C(Nc1cccnn1)N1CCC(=Cc2cccc(Oc3ccc(C(F)(F)F)cn3)c2)CC1 [Compound of Formula (II), reference compound]
[B] O=C1CCC(NC(=O)N2CCC(=Cc3cccc(Oc4ccc(C(F)(F)F)cn4)c3)CC2)=NN1
[C] O=C(O)CCC(=O)NC(=O)N1CCC(=Cc2cccc(Oc3ccc(C(F)(F)F)cn3)c2)CC1
Query: List by increasing Tmax. Please respond with the labels ordered as the question requires.
Reply: A, C, B

###

- test protocol: Phase 1 crossover pharmacokinetic study of Compound of Formula (II) formulations in healthy adult participants
- reported conditions: human, in vivo, oral, 4 mg, following multiple doses of 4 mg of compound of Formula (II), preliminary data
readout label: Cmax (ng/mL)

- O=C(O)CCC(=O)NC(=O)N1CCC(=Cc2cccc(Oc3ccc(C(F)(F)F)cn3)c2)CC1: 3.9

[A] O=C1CCC(NC(=O)N2CCC(=Cc3cccc(Oc4ccc(C(F)(F)F)cn4)c3)CC2)=NN1
[B] O=C(Nc1cccnn1)N1CCC(=Cc2cccc(Oc3ccc(C(F)(F)F)cn3)c2)CC1 [Compound of Formula (II), reference compound]
Query: Which shows the larger Cmax value: A or B ? Choose, then provide that item's label.
Reply: B
(B: 46.6 ng/mL, A: 9.3 ng/mL)

###

- test protocol: Phase 1 crossover pharmacokinetic study of Compound of Formula (II) formulations in healthy adult participants
- reported conditions: human, in vivo, oral, following multiple doses of 4 mg of compound of Formula (II), preliminary data
readout label: half-life (h)

[A] O=C(O)CCC(=O)NC(=O)N1CCC(=Cc2cccc(Oc3ccc(C(F)(F)F)cn3)c2)CC1
[B] O=C1CCC(NC(=O)N2CCC(=Cc3cccc(Oc4ccc(C(F)(F)F)cn4)c3)CC2)=NN1
Query: Which shows the larger half-life value: A or B ? Choose, then provide that item's label.
Reply: B

###

- target under test: Human FAAH (Homo sapiens, UniProt O00519)
- Construct: Recombinant human FAAH encoding full length amino acids were expressed in insect cells
- Sequence (O00519 1-579): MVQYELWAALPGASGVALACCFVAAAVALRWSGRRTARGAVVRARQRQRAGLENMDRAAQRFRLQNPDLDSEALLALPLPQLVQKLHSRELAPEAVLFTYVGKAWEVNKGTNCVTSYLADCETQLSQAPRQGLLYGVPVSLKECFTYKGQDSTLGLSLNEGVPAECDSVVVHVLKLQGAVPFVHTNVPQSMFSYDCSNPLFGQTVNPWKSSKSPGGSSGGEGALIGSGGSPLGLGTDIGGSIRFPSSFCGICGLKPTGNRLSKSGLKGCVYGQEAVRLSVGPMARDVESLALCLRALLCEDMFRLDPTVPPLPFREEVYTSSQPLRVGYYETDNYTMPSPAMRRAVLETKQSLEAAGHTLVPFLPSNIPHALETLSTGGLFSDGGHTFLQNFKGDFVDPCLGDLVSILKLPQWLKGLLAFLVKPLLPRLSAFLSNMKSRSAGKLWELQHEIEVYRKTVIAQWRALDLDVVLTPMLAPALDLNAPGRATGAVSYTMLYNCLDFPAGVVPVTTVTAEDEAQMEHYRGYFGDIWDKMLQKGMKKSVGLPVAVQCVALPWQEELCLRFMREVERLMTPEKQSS
- test protocol: Fluorometric-based Human FAAH Inhibition Assay
- reported conditions: recombinant human FAAH 125 nM, 1 hour preincubation, AMC Arachidonoyl Amide substrate
- Description: Human FAAH protein was prepared using the following method: Recombinant human FAAH encoding full length amino acids were expressed in insect cells using baculovirus infection as C-terminal (non-cleavable) 8×His tag fusion protein. […] Specific activity was determined to be 844 U/mg. […] The total reaction volume per well was 50 μL. […] Rates (RFU/min) were calculated from the linear portion of the reaction curves using a linear least squares curve fitting method using Gen5 v3.10. […]
pIC50: −log10 of the molar value.
readout label: pIC50

Here are 4 molecules together with their reported answers.
* O=C(Nc1cccnn1)N1CCC(=Cc2cccc(Oc3ccc(C(F)(F)F)cn3)c2)CC1 [Compound of Formula (II), reference compound] | 8.45
* O=C(Nc1cccnn1)N1CC/C(=C/c2cccc(Oc3ccc(C(F)(F)F)cn3)c2)[C@H](O)C1 | 6.52
* O=C(Nc1cccnn1)N1CC/C(=C\c2cccc(Oc3ccc(C(F)(F)F)cn3)c2)[C@@H](O)C1 | 8.05
* O=C1CCC(NC(=O)N2CCC(=Cc3cccc(Oc4ccc(C(F)(F)F)cn4)c3)CC2)=NN1 | 7.91

[P] O=C(Nc1cccnn1)N1CC/C(=C/c2cccc(Oc3ccc(C(F)(F)F)cn3)c2)[C@@H](O)C1
[Q] O=C(O)CCC(=O)NC(=O)N1CCC(=Cc2cccc(Oc3ccc(C(F)(F)F)cn3)c2)CC1
Query: Hi, I'm comparing two records. Which one has the lower pIC50, P or Q ? Choose, then provide that item's label.
Reply: Q
(Q: 6.12, P: 7.41)

[P] O=C(Nc1cccnn1)N1CCC(O)(C(O)c2cccc(Oc3ccc(C(F)(F)F)cn3)c2)CC1 (stereo not drawn)
[Q] FC(F)(F)c1ccc(Oc2cccc(C=C3CCNCC3)c2)nc1
Query: Which shows the larger pIC50 value: P or Q ? Choose, then provide that item's label.
Reply: P

###

- test protocol: Phase 1 crossover pharmacokinetic study of Compound of Formula (II) formulations in healthy adult participants
- reported conditions: human, in vivo, oral, 4 mg, following single dose of 4 mg of compound of Formula (II), preliminary data
- Experimental: Partial preliminary data on Compound of Formula (II), Compound B, and Compound C) were obtained from a phase 1, single-center, open-label, randomized, 3-period, 2-sequence crossover study to characterize the PK, safety, and tolerability of Compound of Formula (II) formulations (capsule vs tablet) in healthy adult participants. In Periods 1 and 2, participants were randomized to receive 4 mg Compound of Formula (II) capsule formulation or 4 mg Compound of Formula (II) tablet formulation. […]
readout label: Cmax (ng/mL)

• O=C(O)CCC(=O)NC(=O)N1CCC(=Cc2cccc(Oc3ccc(C(F)(F)F)cn3)c2)CC1 [Compound C] = 0.4

[I] O=C1CCC(NC(=O)N2CCC(=Cc3cccc(Oc4ccc(C(F)(F)F)cn4)c3)CC2)=NN1 [Compound B]
[II] O=C(Nc1cccnn1)N1CCC(=Cc2cccc(Oc3ccc(C(F)(F)F)cn3)c2)CC1 [Compound of Formula (II), reference compound]
Query: Which shows the larger Cmax value: I or II ? Choose, then provide that item's label.
Reply: II
(II: 31.3 ng/mL, I: 0.3 ng/mL)

###

- target under test: Rat FAAH (Rattus norvegicus, UniProt P97612)
- Construct: truncated rat FAAH encoding amino acids residues 30-579; 6xHis (N); TEV cleavage site (N)
- Sequence (P97612 30-579): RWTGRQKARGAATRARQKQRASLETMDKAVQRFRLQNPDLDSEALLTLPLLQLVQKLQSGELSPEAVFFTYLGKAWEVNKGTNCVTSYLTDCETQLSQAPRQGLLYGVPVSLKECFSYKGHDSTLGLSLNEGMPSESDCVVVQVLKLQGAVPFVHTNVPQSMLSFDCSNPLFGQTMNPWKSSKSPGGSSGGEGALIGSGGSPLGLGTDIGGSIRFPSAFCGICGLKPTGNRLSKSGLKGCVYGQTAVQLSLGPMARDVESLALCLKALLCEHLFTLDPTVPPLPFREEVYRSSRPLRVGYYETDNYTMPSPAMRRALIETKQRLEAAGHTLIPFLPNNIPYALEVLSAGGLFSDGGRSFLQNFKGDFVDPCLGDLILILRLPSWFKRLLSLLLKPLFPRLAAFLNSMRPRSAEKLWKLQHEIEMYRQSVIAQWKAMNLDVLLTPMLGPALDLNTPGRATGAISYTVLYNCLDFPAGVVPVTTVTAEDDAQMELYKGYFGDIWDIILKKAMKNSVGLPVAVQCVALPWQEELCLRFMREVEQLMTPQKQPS
- test protocol: Fluorometric-based Rat FAAH Inhibition Assay
- reported conditions: recombinant rat FAAH 20 nM, 1 hour preincubation, 2 μM AMC Arachidonoyl Amide substrate
pIC50: −log10 of the molar value.
readout label: pIC50

* O=C(Nc1cccnn1)N1CC/C(=C\c2cccc(Oc3ccc(C(F)(F)F)cn3)c2)[C@@H](O)C1 | 7.25

[P] O=C1CCC(NC(=O)N2CCC(=Cc3cccc(Oc4ccc(C(F)(F)F)cn4)c3)CC2)=NN1
[Q] O=C(Nc1cccnn1)N1CCC(=Cc2cccc(Oc3ccc(C(F)(F)F)cn3)c2)CC1 [Compound of Formula (II), reference compound]
[R] O=C(Nc1cccnn1)N1CC/C(=C/c2cccc(Oc3ccc(C(F)(F)F)cn3)c2)[C@@H](O)C1
Query: Sort (3 compounds) by pIC50: min first. Please respond with the labels ordered as the question requires.
Reply: R, P, Q
(R: 6.77, P: 7.07, Q: 7.99)
